Biological target: MyD88^TIR (Homo sapiens, UniProt Q99836)
Construct: MyD88 (residues 148–296); 6xHis; made in house; host or cells: E. coli BL21 (DE3)
Sequence (Q99836 148-296): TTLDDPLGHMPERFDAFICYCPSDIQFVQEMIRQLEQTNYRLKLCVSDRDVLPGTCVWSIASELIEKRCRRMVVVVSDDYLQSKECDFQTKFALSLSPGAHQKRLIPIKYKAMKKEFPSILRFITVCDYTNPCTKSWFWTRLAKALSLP
Assay: T‐Surf phage library (P8 and P3) selection against MyD88^TIR, four rounds, NGS read counts
Format: binding
Conditions: P8 library, 4R selection against MyD88, rank after grouping
valueKind: P8_MyD88 Rank (after)

# recordSequence, experimentalValue
measured = [
    ("YLRADDIWVWEKLLYA", 646),
    ("DPQVLVWLYERPFRQI", 629),
    ("WVFASNLETFWARLYY", 599),
    ("VANILGYHCKGWENFV", 674),
    ("DPQDPDRNYERMVSRL", 661),
    ("DWVWDYLLPKLECPSG", 579),
    ("DWVWDELLKILYANETM", 647),
    ("LGYHGLIGSILWALK", 618),
    ("DPRDLAWFYEVLLSRF", 657),
    ("DSFFWDRLLYILHVTE", 654),
    ("IDDDHLTYLVRLLLS", 597),
    ("YELDFSHFWLFEARGDA", 636),
    ("SWAVDELLQILHARELF", 625),
    ("DPQVLEWFYERLVSMF", 658),
    ("DPQELECLYERLFSQM", 667),
    ("DPQGHAWTYERHLSVF", 584),
    ("DPQELEWFYERLLSQM", 620),
    ("DPQDLDWFYERREPA", 662),
    ("PQDLDWFYDRLVSLIL", 589),
    ("WDYASNMEQFWDPLYY", 675),
    ("NYTSSSWALDEQWNIF", 653),
    ("WFWQSLRNTIIMDNQA", 605),
    ("PQDLAWYYVRLVSLIL", 583),
    ("WALDELLQILHARELLQIA", 632),
    ("DPQDLGWFYERLISQILK", 624),
    ("WALDLEWFYERLFSQM", 587),
    ("AWVGDYLLPNLEGPAG", 672),
    ("IDDDHLTYLVRLLYSL", 607),
    ("LGYHWIVWEYLVGIKD", 652),
    ("DPQDLDRSYERLVSLC", 670),
    ("DPQDLDLFYERLVSMF", 673),
    ("IDDEHLTYLGRLLLSR", 580),
    ("VQWDDPWFWDKLAY", 623),
    ("DSQDLDWLYERLVSLL", 621),
    ("LGYQGIDGEYFVGIED", 617),
    ("VQCGDPWCWEKLAYAM", 596),
    ("LGYHWIDWENLVGFED", 630),
]
